- TGT: human DNA polymerase alpha (Homo sapiens, UniProt P09884)
- Sequence (P09884 whole entry): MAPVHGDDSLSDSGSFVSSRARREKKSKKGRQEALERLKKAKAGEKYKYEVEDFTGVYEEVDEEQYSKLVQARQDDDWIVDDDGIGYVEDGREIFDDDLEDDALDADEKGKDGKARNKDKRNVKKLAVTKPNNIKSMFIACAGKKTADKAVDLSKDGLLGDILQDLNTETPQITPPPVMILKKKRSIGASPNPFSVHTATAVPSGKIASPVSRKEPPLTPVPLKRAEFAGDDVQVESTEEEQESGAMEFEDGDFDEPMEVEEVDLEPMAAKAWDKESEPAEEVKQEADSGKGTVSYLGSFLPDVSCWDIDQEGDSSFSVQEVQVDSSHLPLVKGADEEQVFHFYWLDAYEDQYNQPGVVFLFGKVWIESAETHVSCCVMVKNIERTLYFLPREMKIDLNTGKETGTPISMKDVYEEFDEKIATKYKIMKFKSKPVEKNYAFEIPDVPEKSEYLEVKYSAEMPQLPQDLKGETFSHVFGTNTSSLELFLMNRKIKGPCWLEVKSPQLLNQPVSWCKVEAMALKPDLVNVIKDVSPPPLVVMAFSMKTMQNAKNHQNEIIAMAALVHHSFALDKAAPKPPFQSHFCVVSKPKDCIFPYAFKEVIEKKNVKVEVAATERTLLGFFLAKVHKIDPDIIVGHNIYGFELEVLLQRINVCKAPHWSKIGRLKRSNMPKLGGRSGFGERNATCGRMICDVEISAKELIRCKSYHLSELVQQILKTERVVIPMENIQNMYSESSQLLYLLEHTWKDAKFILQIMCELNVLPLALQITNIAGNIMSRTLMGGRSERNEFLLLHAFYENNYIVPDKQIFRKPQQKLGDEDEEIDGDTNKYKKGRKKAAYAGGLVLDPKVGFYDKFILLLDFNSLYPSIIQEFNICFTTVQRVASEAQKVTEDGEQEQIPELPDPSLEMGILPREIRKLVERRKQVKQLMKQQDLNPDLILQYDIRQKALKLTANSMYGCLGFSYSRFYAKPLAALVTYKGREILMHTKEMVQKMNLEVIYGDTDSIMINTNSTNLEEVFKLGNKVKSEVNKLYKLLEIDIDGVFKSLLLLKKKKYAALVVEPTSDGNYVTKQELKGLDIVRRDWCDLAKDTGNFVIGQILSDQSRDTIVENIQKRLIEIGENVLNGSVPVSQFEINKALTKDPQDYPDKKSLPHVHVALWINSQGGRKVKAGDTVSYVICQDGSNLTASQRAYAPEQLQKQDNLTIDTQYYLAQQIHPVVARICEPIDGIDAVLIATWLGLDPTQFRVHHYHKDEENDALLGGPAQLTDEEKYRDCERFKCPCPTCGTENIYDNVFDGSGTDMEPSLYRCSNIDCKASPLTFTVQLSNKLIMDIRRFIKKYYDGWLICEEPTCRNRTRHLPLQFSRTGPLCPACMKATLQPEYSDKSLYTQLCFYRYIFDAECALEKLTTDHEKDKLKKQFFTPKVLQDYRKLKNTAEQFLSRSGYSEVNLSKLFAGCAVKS
- MEASUREMENT PROTOCOL: Human cellular DNA polymerase alpha assay
- Assay type: biochemical
- REPORTED CONDITIONS: Mean IC50 Values ± Standard Deviation, DNA Pol Alpha, Table 6; N=4
MEASUREMENT NAME: IC50 (µM)
The reply should be a number in µM, with the unit left off.

Q: Quick one: IC50 of CO[P@](=O)(c1cc(C)cc(/C=C/C#N)c1)c1c(C(N)=O)[nH]c2ccc(Cl)c(F)c12 ?
Result: 146

---

# reported pIC50; entries follow
- TGT: CYP2C9 (Homo sapiens, UniProt P11712)
- Sequence (P11712 whole entry): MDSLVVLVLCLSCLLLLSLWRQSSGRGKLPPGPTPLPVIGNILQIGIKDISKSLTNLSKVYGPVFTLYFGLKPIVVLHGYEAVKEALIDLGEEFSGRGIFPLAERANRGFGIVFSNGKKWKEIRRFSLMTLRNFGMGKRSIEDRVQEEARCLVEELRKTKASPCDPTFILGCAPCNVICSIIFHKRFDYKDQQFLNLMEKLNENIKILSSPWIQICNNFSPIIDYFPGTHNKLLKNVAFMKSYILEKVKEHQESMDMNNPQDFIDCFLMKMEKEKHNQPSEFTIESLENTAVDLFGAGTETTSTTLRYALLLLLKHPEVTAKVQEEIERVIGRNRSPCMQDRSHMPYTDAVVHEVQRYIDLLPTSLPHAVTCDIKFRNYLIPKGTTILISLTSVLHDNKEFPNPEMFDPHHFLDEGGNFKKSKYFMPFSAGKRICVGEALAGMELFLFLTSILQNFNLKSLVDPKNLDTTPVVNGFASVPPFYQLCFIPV
- MEASUREMENT PROTOCOL: Recombinant CYP450 inhibition, Luciferin-H, CYP2C9
- Assay type: in vitro ADME
- Set-up: from tissue; host or cells: pooled human liver microsomes
- REPORTED CONDITIONS: highest concentration tested 10 μM
# log scale: pIC50 equals minus log10 of the concentration in mol/L

Example molecules with recorded pIC50:
- CO[P@](=O)(c1cc(C)cc(/C=C/C#N)c1)c1c(C(N)=O)[nH]c2ccc(Cl)c(F)c12: 5.08
- COP(=O)(c1cc(C)cc(/C=C/C#N)c1)c1c(C(N)=O)[nH]c2ccc(Cl)cc12 (racemic): 5.22
- CO[P@](=O)(c1cc(C)cc(/C=C/C#N)c1)c1c(C(N)=O)[nH]c2ccc(Cl)cc12: 5.16

Consider the additional molecule presented here.
Q: Which measured pIC50 value corresponds to CO[P@@](=O)(c1cc(C)cc(/C=C/C#N)c1)c1c(C(N)=O)[nH]c2ccc(Cl)cc12 ?
Result: 5.47
